// Fold increase over wild-type KD lookup, one value per entry
molecular target: bovine FcRn complex (bovine) (UniProt F6R592); experiment: SPR (Biacore 8K+), pH 5.9, 25 C; FcRn captured by anti-His, IgG as analyte; 1:1 kinetic model
Sequence (chain, as listed by the source, chain 1 of 2): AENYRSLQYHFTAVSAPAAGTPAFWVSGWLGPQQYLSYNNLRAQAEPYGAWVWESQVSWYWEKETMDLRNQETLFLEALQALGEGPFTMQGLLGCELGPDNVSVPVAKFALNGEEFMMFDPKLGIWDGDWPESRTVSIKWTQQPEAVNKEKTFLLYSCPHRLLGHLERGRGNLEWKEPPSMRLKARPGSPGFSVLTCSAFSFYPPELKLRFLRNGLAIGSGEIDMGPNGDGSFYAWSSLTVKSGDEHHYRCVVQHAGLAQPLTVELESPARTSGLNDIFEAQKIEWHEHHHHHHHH
Sequence (P01888 other isoform, or with tags, fused parts or gaps, chain 2 of 2): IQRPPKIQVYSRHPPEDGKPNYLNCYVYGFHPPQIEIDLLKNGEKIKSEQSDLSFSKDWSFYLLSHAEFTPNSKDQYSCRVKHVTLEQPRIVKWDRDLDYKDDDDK

Bovine T252Y (antibody, part only; not given: variable domains and light chain, IgG1, not shown: another chain or arm of the molecule) Fc: PPELPGGPSVFIFPPKPKDTLYISGTPEVTCVVVDVGHDDPEVKFSWFVDNVEVNTATTKPREEQFNSTYRVVSALRIQHQDWTGGKEFKCKVHNEGLPAPIVRTISRTKGPAREPQVYVLAPPQEELSKSTVSLTCMVTSFYPDYIAVEWQRNGQPESEDKYGTTPPQLDADSSYFLYSKLRVDRNSWQEGDTYTCVVMHEALHNHYTQKSTSKSA = 7.1 fold

Now look at this one.
[in] What value of measured Fold increase over wild-type KD is listed for Bovine Q309V (antibody, part only; not given: variable domains, light chain, IgG1, not shown: another chain or arm of the molecule) Fc: PPELPGGPSVFIFPPKPKDTLTISGTPEVTCVVVDVGHDDPEVKFSWFVDNVEVNTATTKPREEQFNSTYRVVSALRIVHQDWTGGKEFKCKVHNEGLPAPIVRTISRTKGPAREPQVYVLAPPQEELSKSTVSLTCMVTSFYPDYIAVEWQRNGQPESEDKYGTTPPQLDADSSYFLYSKLRVDRNSWQEGDTYTCVVMHEALHNHYTQKSTSKSA ?
[out] 3.9 fold
